assay: in vivo; conditions: BALB/c, mouse, iv, 10 mg/kg
Structures can show the parent of a compound that is named as a salt.
Value Type: half-life

What value of half-life has been recorded for this entry: CC[C@@]1(O)C(=O)OCc2c1cc1n(c2=O)Cc2cc3c(CN(C)C)c(O)ccc3nc2-1 [TPTC, topotecan hydrochloride] 5 min

###

biological target: LAT1 (Homo sapiens); construct: we treated HeLa cells with an excess of leucine (Leu), phenylalanine (Phe), or glycine (Gly) prior to adding LAAM TC-CQDs; endogenous in cells; host or cells: HeLa (also A549, PANC-1, MCF-7, MDA-MB-231, MDA-MB-231 SP in the flow cytometry); assay: LCSM: effect of Leu, Phe, Gly or BCH pre-treatment on uptake of LAAM TC-CQDs; format: cell-based; conditions: HeLa cells, excess of the agent prior to adding LAAM TC-CQDs
Sequence (Q01650 whole entry): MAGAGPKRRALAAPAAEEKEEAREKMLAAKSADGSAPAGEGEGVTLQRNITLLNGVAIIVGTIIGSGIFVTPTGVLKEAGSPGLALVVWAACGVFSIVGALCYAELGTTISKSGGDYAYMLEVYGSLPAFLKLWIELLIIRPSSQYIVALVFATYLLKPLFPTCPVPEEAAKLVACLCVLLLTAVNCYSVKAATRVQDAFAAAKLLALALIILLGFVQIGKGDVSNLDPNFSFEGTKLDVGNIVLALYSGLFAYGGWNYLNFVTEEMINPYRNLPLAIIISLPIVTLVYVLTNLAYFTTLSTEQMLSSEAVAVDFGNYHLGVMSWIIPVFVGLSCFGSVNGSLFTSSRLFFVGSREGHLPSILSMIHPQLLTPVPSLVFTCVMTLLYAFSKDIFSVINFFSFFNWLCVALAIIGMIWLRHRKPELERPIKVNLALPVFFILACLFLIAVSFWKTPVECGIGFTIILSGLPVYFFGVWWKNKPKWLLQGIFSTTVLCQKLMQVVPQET
Sequence (P08195 102-630 partner): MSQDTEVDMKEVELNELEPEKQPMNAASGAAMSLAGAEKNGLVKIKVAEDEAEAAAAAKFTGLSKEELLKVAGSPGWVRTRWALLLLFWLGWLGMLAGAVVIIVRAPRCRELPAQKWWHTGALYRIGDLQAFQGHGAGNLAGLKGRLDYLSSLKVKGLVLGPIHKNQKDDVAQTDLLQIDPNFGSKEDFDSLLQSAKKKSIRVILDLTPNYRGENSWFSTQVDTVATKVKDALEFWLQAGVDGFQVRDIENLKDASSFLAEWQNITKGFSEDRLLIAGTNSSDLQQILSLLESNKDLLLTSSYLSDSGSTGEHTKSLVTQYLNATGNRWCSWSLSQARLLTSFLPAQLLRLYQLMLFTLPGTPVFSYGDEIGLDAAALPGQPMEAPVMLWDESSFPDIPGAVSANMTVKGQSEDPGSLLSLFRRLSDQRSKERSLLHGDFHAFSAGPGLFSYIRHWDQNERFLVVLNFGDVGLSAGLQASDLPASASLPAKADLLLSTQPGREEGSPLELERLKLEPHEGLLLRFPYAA
Value Type: effect of pre-treatment on uptake of LAAM TC-CQDs

[[record]]
input_smiles = "NCC(=O)O"
data_value = "not"

[[record]]
input_smiles = "CC(C)C[C@H](N)C(=O)O"
data_value = "significantly inhibited"

[[record]]
input_smiles = "N[C@@H](Cc1ccccc1)C(=O)O"
data_value = "significantly inhibited"

